- Tested on: MOLT-4 leukemia
- ASSAY_INFO: NCI tumour cell line growth inhibition, 48 h
RESULT_TYPE: GI50

>>> reported_value("O=C1c2ccccc2-c2c1c1ccccc1c(=O)n2CCCn1ccnc1")
"0.274 µM"
>>> reported_value("N#C/C(=C\\c1ccc(Br)cc1)n1nnc2ccc(F)cc21")
"2.18 µM"
>>> reported_value("CCCCCCCc1cc2c3c(nc4ccccc42)C(=O)c2cccnc2-c3n1")
"1.54 µM"
>>> reported_value("CCN1CCN(CC(=O)N2c3cccc4cccc(c34)N(C(=O)CN3CCN(CC)CC3)C2c2cn(-c3ccccc3)nc2-c2cccc([N+](=O)[O-])c2)CC1")
"1.69 µM"
>>> reported_value("CCNC(=O)O[C@H]1CN[C@H](C#Cc2cc3ncnc(Nc4ccc(OCc5cccc(F)c5)c(Cl)c4)c3s2)C1")
"4.58 µM"
>>> reported_value("CC(C)=CC1=C2C3=C(C(=O)C4(O)Oc5c(C)c6c7c(c5OC24C)[C@@H](C)CC[C@@H]7[C@@H](C)C[C@H]6C=C(C)C)C(C)CCC3C(C)C1 (some centres not stated)")
"> 100 µM"
>>> reported_value("Cc1cnc(C(=O)Nc2nc3ccc(S(=O)(=O)Nc4ccc(C5(C(F)(F)F)CC5)cc4)cc3[nH]2)cn1")
"0.501 µM"
>>> reported_value("O=C(OC[C@H]1O[C@H](OC(=O)c2cc(O)c(O)c(OC(=O)c3cc(O)c(O)c(O)c3)c2)[C@H](OC(=O)c2cc(O)c(O)c(OC(=O)c3cc(O)c(O)c(O)c3)c2)[C@@H](OC(=O)c2cc(O)c(O)c(OC(=O)c3cc(O)c(O)c(O)c3)c2)[C@@H]1OC(=O)c1cc(O)c(O)c(OC(=O)c2cc(O)c(O)c(O)c2)c1)c1cc(O)c(O)c(OC(=O)c2cc(O)c(O)c(O)c2)c1")
"4.32 µM"
>>> reported_value("COc1cc(C2CC(c3ccc(Nc4ccnc5cc(Cl)ccc45)cc3)=NN2c2ccc(Cl)cc2)cc(OC)c1OC (configuration not stated)")
"3.86 µM"
>>> reported_value("C=C1C(=O)O[C@H]2[C@H]1CC/C(Cn1cc(-c3ccccc3C(F)(F)F)nn1)=C\\CC[C@@]1(C)O[C@@H]21")
"3.03 µM"
>>> reported_value("C#CCOc1cccc(Nc2ncnc3cc(NC(=O)CCl)ccc23)c1")
"1.96 µM"
>>> reported_value("CN(C)c1ccc(/C=C/c2cc[n+](C)c(/C=C/c3ccc(N(C)C)cc3)c2)cc1")
"0.388 µM"

* * *

- Test system: U251 CNS
- ASSAY_INFO: NCI tumour cell line growth inhibition, 48 h
RESULT_TYPE: TGI

>>> reported_value("CCOC(=O)CCC(NC(=O)c1ccc(OCc2ccc3nc(-c4ccccc4)c(Cl)nc3c2)cc1)C(=O)OCC (centres undefined)")
"> 31.6 µM"
>>> reported_value("O=C1C(c2c(O)[nH]c3ccc(Br)cc23)=Nc2ccccc21")
"26.2 µM"
>>> reported_value("CC(C)(c1ccccc1)c1ccc(OC#N)cc1")
"> 100 µM"
>>> reported_value("COC(=O)[C@@H](C)C[C@H](Cc1ccccc1)NC(=O)c1csc([C@@H](C[C@H](C(C)C)N(C)C(=O)[C@@H](NC(=O)[C@H]2CCCCN2C)C2CC2)OC(C)=O)n1")
"> 16.5 µM"
>>> reported_value("CC(=O)C1=C(O)CC2CC3c4[nH]c5ccccc5c4CCN3CC2C1 (centres undefined)")
"> 100 µM"
>>> reported_value("O=c1c(-c2ccccc2)coc2cc(OC/C(=N/O)c3ccccc3)ccc12")
"56.1 µM"
>>> reported_value("OCC#Cc1ccccc1C#CCCCCCC#Cc1ccccc1C#CCO")
"36 µM"
>>> reported_value("Cc1cccc(C)c1NC(=O)C(=O)Nn1c(NN)nc2ccccc2c1=O")
"> 100 µM"
>>> reported_value("Cc1cc(C)c(-n2c(-c3ccc(Br)cc3)cs/c2=N\\N=C2C=C(C(C)(C)C)C(=O)C(C(C)(C)C)=C2)c(C)c1")
"> 100 µM"
